Origin of measurements: a melting point compilation (Tetko et al.)

melting point for assorted compounds

>  <COMPOUND>
Clc1ccc2c(Cl)ccc(Cl)c2n1

>  <RESULT>
85 to 87 °C

$$$$
>  <COMPOUND>
Nc1ccc2nc(-c3ccccn3)oc2c1

>  <RESULT>
178 to 180 °C

$$$$
>  <COMPOUND>
CC1CSc2ccc(Br)cc2C1=O (configuration not stated)

>  <RESULT>
65 to 67 °C

$$$$
>  <COMPOUND>
O[C@@H]1CCCOc2ccccc21

>  <RESULT>
89 to 91 °C

$$$$

INPUT: Which melting point is listed for O=C(CCl)NC12CC3CC(CC(C3)C1)C2 ?
OUTPUT: 110 to 112 °C

INPUT: Which melting point is listed for COc1ccc(S(=O)(=O)Cl)c(C)c1F ?
OUTPUT: 90 to 92 °C

INPUT: Which melting point is listed for OCc1cn(-c2ccc(Cl)cc2)nn1 ?
OUTPUT: 142 to 144 °C

INPUT: Which melting point is listed for NNc1ccc(S(=O)(=O)N2CCCCC2)cn1 ?
OUTPUT: 186 to 188 °C

INPUT: Which melting point is listed for O=c1c(Cl)c(Cl)cnn1Cc1ccccc1 ?
OUTPUT: 87 to 89 °C

INPUT: Which melting point is listed for Cc1ccc(-n2nnnc2S)cc1C ?
OUTPUT: 110 to 112 °C

INPUT: Which melting point is listed for O=C(O)C1CCN(C(=O)NC2CC2)CC1 ?
OUTPUT: 123 to 125 °C

INPUT: Which melting point is listed for Nc1ccc(N2CCCCC2)c2ccncc12 ?
OUTPUT: 149 to 151 °C

INPUT: Which melting point is listed for Nc1nnc(-c2cccs2)[nH]1 ?
OUTPUT: 202 to 204 °C

INPUT: Which melting point is listed for COc1ccccc1C(=O)c1ccccc1Cl ?
OUTPUT: 59 to 61 °C

INPUT: Which melting point is listed for O=C(O)c1cc(Cl)c(Br)[nH]1 ?
OUTPUT: 168 to 170 °C

INPUT: Which melting point is listed for O=C1COc2ccc(Br)cc21 ?
OUTPUT: 111 to 113 °C

INPUT: Which melting point is listed for Cc1nnc(S)n1C ?
OUTPUT: 112 to 115 °C

INPUT: Which melting point is listed for CC(=O)NCCc1ccc(C(=O)C(C)Cl)cc1 (configuration not stated) ?
OUTPUT: 85 to 89 °C

INPUT: Which melting point is listed for COc1ccc2c(C)cc3nnc(S)n3c2c1 ?
OUTPUT: 256 to 258 °C

INPUT: Which melting point is listed for Cc1noc(C)c1S(=O)(=O)N1CCCC1C(=O)O (configuration not stated) ?
OUTPUT: 133 to 137 °C

INPUT: Which melting point is listed for NC(=O)Cc1csc(N)n1 ?
OUTPUT: 158 to 165 °C

INPUT: Which melting point is listed for CC=Cc1ccc(OCC(=O)O)c(OC)c1 ?
OUTPUT: 117 to 119 °C

INPUT: Which melting point is listed for CC(C)C(Oc1ccccc1Br)C(=O)O (configuration not stated) ?
OUTPUT: 63 to 65 °C

----------
MEASUREMENT_TYPE: melting point

>  <COMPOUND>
O=C(CBr)c1ccc(S(=O)(=O)N2CCOCC2)cc1

>  <RESULT>
148 to 150 °C

$$$$
>  <COMPOUND>
O=C(O)CNC(=O)c1ccccn1

>  <RESULT>
167 to 169 °C

$$$$
>  <COMPOUND>
Ic1cnc2ccccc2c1

>  <RESULT>
57 to 59 °C

$$$$
>  <COMPOUND>
CC(C)CN1C(=O)C(=O)c2ccccc21

>  <RESULT>
82 to 84 °C

$$$$
>  <COMPOUND>
O=C(O)CCC(=O)Nc1nccs1

>  <RESULT>
257 to 259 °C

$$$$
>  <COMPOUND>
COC(=O)COc1ccc(Br)cc1

>  <RESULT>
49 to 51 °C

$$$$

INPUT: Which melting point is listed for CC1(C(=O)O)CCc2ccccc2C1 (configuration not stated) ?
OUTPUT: 105 to 107 °C
